Listing of recorded IC50 by entry.
target_of_assay: mouse HER2 (23-653) (Mus musculus, UniProt P70424)
experiment: TR-FRET competition assay for peptide potency, mouse HER2
Assay type: binding
Set-up: mouse HER2 (23-653) using a Cy5 labeled peptide as a probe; made in house; host or cells: mammalian cells
details: TR-FRET competition with Cy5 labeled peptide probe, 0.1 nM mouse HER2, 24 h incubation; read-out: moHER2 TR-FRET IC50
Positions of bridges follow the written chain, without caps; N, C: chain ends. Non-standard residues stand in square brackets, D forms with d. Residues, ends and D or L forms follow the SMILES beside them. Trp(5-OH) = N[C@@H](Cc1c[nH]c2ccc(O)cc12)C(=O)O; NMePhe(4-F) = CN[C@@H](Cc1ccc(F)cc1)C(=O)O; NMehPhe = CN[C@@H](CCc1ccccc1)C(=O)O; NMeAhp(2) = CCCCC[C@H](NC)C(=O)O; Aad = N[C@@H](CCCC(=O)O)C(=O)O; Gly(cPr) = N[C@H](C(=O)O)C1CC1; NMeK = CN[C@@H](CCCCN)C(=O)O; NMeDap = CN[C@@H](CN)C(=O)O; NMeS = CN[C@@H](CO)C(=O)O
Write down the numeric answer in nM and omit the unit.

Solved entries:
[
  {
    "compound": "CC(=O)N[C@H]1CCC(=O)NC[C@@H](C(=O)N(C)[C@@H](Cc2ccc(F)cc2)C(N)=O)N(C)C(=O)[C@H](C2CC2)NC(=O)[C@H](Cc2c[nH]c3ccccc23)NC(=O)[C@H](Cc2c[nH]c3ccc(O)cc23)NC(=O)[C@H](CO)N(C)C(=O)[C@H](CCc2ccccc2)N(C)C(=O)[C@H](CCCC(=O)O)NC(=O)[C@H](Cc2ccc(O)cc2)NC1=O [Example A27] (Ac-EY[Aad][NMehPhe][NMeS][Trp(5-OH)]W[Gly(cPr)][NMeDap][NMePhe(4-F)]-NH2; lactam 1-9)",
    "IC50 [nM]": 627
  },
  {
    "compound": "CC(=O)N[C@H]1CCC(=O)NC[C@@H](C(=O)N(C)[C@@H](Cc2ccc(F)cc2)C(N)=O)N(C)C(=O)[C@H](C2CC2)NC(=O)[C@H](Cc2c[nH]c3ccccc23)NC(=O)[C@H](Cc2c[nH]c3ccc(O)cc23)NC(=O)[C@H](CO)N(C)C(=O)[C@H](CCc2ccccc2)N(C)C(=O)[C@H](CO)NC(=O)[C@H](Cc2ccc(O)cc2)NC1=O",
    "IC50 [nM]": 162
  }
]

The record that follows has no IC50 shown yet.
(Q) Consider the compound CCCCC[C@@H](C(N)=O)N(C)C(=O)[C@@H]1CNC(=O)CCC[C@H](NC(C)=O)C(=O)N[C@@H](Cc2ccc(O)cc2)C(=O)N[C@@H](CO)C(=O)N(C)[C@@H](CCc2ccccc2)C(=O)N(C)[C@@H](CCCCNC(C)=O)C(=O)N[C@@H](Cc2c[nH]c3ccc(O)cc23)C(=O)N[C@@H](Cc2c[nH]c3ccccc23)C(=O)N[C@@H](C2CC2)C(=O)N1C [Example A15] (Ac-[Aad]YS[NMehPhe][NMeK](Ac)[Trp(5-OH)]W[Gly(cPr)][NMeDap][NMeAhp(2)]-NH2; lactam 1-9) and give its measured IC50.
(A) 55

* * *

target_of_assay: human HER2 (23-652) (Homo sapiens, UniProt P04626)
experiment: Surface plasmon resonance (SPR) for assessment of peptide affinity, human HER2
Assay type: binding
Parameters: towards human HER2 (23-652) and mouse HER2 (23-653); made in house
details: SPR, human HER2 extracellular domain, 25° C., 1:1 binding model; read-out: huHER2-SPR-ONC KD
pKd: −log10 of the molar value. Positions of bridges follow the written chain, without caps; N, C: chain ends. Non-standard residues stand in square brackets, D forms with d. Residues, ends and D or L forms follow the SMILES beside them. Trp(5-OH) = N[C@@H](Cc1c[nH]c2ccc(O)cc12)C(=O)O; NMePhe(4-F) = CN[C@@H](Cc1ccc(F)cc1)C(=O)O; NMehPhe = CN[C@@H](CCc1ccccc1)C(=O)O; Aad = N[C@@H](CCCC(=O)O)C(=O)O; Gly(cPr) = N[C@H](C(=O)O)C1CC1; NMeK = CN[C@@H](CCCCN)C(=O)O; NMeDap = CN[C@@H](CN)C(=O)O
readout_kind: pKd

Observe how each entry below is paired with its result.
[
  {
    "compound": "CC(=O)N[C@H]1CCC(=O)NC[C@@H](C(=O)N(C)[C@@H](Cc2ccc(F)cc2)C(N)=O)N(C)C(=O)[C@H](C2CC2)NC(=O)[C@H](Cc2c[nH]c3ccccc23)NC(=O)[C@H](Cc2cnn3ccccc23)NC(=O)[C@H](CO)N(C)C(=O)[C@H](CCc2ccccc2)N(C)C(=O)[C@H](CO)NC(=O)[C@H](Cc2ccc(O)cc2)NC1=O",
    "pKd": "< 5.22"
  },
  {
    "compound": "CC(=O)NCCCC[C@H]1C(=O)N[C@@H](Cc2c[nH]c3ccc(O)cc23)C(=O)N[C@@H](Cc2c[nH]c3ccccc23)C(=O)N[C@@H](C2CC2)C(=O)N(C)[C@H](C(=O)N(C)[C@@H](Cc2ccc(F)cc2)C(=O)N[C@@H](CCCCNC(=O)CCC(C(=O)O)N2CCN(CC(=O)O)CCN(CC(=O)O)CC2)C(N)=O)CNC(=O)CCC[C@H](NC(C)=O)C(=O)N[C@@H](Cc2ccc(O)cc2)C(=O)N[C@@H](CO)C(=O)N(C)[C@@H](CCc2ccccc2)C(=O)N1C (single isomer, unassigned) [Example C34]",
    "pKd": "> 10.00"
  }
]

Consider the additional compound presented here.
(Q) I have this compound here, CC(=O)NCCCC[C@H]1C(=O)N[C@@H](Cc2c[nH]c3ccc(O)cc23)C(=O)N[C@@H](Cc2c[nH]c3ccccc23)C(=O)N[C@@H](C2CC2)C(=O)N(C)[C@H](C(=O)N(C)[C@@H](Cc2ccc(F)cc2)C(N)=O)CNC(=O)CCC[C@H](NC(C)=O)C(=O)N[C@@H](Cc2ccc(O)cc2)C(=O)N[C@@H](CO)C(=O)N(C)[C@@H](CCc2ccccc2)C(=O)N1C [Example A5] (Ac-[Aad]YS[NMehPhe][NMeK](Ac)[Trp(5-OH)]W[Gly(cPr)][NMeDap][NMePhe(4-F)]-NH2; lactam 1-9) , and I need its recorded pKd.
(A) 9.30

* * *

target_of_assay: human HER2 (23-652) (Homo sapiens, UniProt P04626)
experiment: TR-FRET competition assay for peptide potency, human HER2
Type: binding
Design: towards human HER2 (23-652) and mouse HER2 (23-653); made in house; host or cells: mammalian cells
details: TR-FRET competition with Cy5 labeled peptide probe, 0.1 nM human HER2, 24 h incubation; read-out: huHER2 TR-FRET IC50
Recorded log10 IC50 for the following compounds
Please note: log10 values; quantity IC50; unit nM.

Some compounds with recorded log10 IC50:
[
  {
    "compound": "CC(=O)NCCCC[C@H]1C(=O)N[C@@H](Cc2c[nH]c3ccc(O)cc23)C(=O)N[C@@H](Cc2c[nH]c3ccccc23)C(=O)N[C@@H](C2CC2)C(=O)N(C)[C@H](C(=O)N(C)[C@@H](Cc2ccc(F)cc2)C(=O)N[C@@H](CCCCNC(=O)CN2CCN(CC(=O)O)CCN(CC(=O)O)CCN(CC(=O)O)CC2)C(N)=O)CNC(=O)CCC[C@H](N)C(=O)N[C@@H](Cc2ccc(O)cc2)C(=O)N[C@@H](CO)C(=O)N(C)[C@@H](CCc2ccccc2)C(=O)N1C [Example C18]",
    "target_of_assay": "human HER2 (23-652) (Homo sapiens, UniProt P04626)",
    "log10 IC50": -1.00
  },
  {
    "compound": "CC(=O)NCCCC[C@H]1C(=O)N[C@@H](Cc2c[nH]c3ccc(O)cc23)C(=O)N[C@@H](Cc2c[nH]c3ccccc23)C(=O)N[C@@H](C2CC2)C(=O)N(C)[C@H](C(=O)N(C)[C@@H](Cc2ccc(F)cc2)C(=O)N[C@@H](CCCCNC(=O)CN2CCN(CC(=O)O)CCN(CC(=O)O)CCN(CC(=O)O)CC2)C(=O)O)CNC(=O)CCC[C@H](NC(C)=O)C(=O)N[C@@H](Cc2ccc(O)cc2)C(=O)N[C@@H](CO)C(=O)N(C)[C@@H](CCc2ccccc2)C(=O)N1C [Example C12]",
    "target_of_assay": "human HER2 (23-652) (Homo sapiens, UniProt P04626)",
    "log10 IC50": -0.52
  }
]

(Q) For the compound shown here, CC(=O)NCCCC[C@H]1C(=O)N[C@@H](Cc2c[nH]c3ccc(O)cc23)C(=O)N[C@@H](Cc2c[nH]c3ccccc23)C(=O)N[C@@H]([C@H](C)O)C(=O)N(C)[C@H](C(=O)N(C)[C@@H](Cc2ccc(F)cc2)C(=O)N[C@@H](CCCCNC(=O)N2CCN(CC(=O)O)CC2)C(=O)N[C@@H](CCCCNC(=O)CN2CCN(CC(=O)O)CCN(CC(=O)O)CCN(CC(=O)O)CC2)C(N)=O)CNC(=O)CC[C@H](NC(C)=O)C(=O)N[C@@H](Cc2ccc(O)cc2)C(=O)N[C@@H](CO)C(=O)N(C)[C@@H](CCc2ccccc2)C(=O)N1C [Example C24] , give the reported log10 IC50.
(A) 1.11

(Q) Repeat with CC(=O)NCCCC[C@H]1C(=O)N[C@@H](Cc2c[nH]c3ccc(O)cc23)C(=O)N[C@@H](Cc2c[nH]c3ccccc23)C(=O)N[C@@H]([C@H](C)O)C(=O)N(C)[C@H](C(=O)N(C)[C@@H](Cc2ccc(F)cc2)C(=O)N[C@@H](CCCCNC(=O)CN2CCN(CC(=O)O)CCN(CC(=O)O)CCN(CC(=O)O)CC2)C(N)=O)CNC(=O)CCC[C@H](NC(C)=O)C(=O)N[C@@H](Cc2ccc(O)cc2)C(=O)N[C@@H](CO)C(=O)N(C)[C@@H](CCc2ccccc2)C(=O)N1C [Example C6]
(A) -0.30

(Q) Do the same for CC(=O)NCCCC[C@H]1C(=O)N[C@@H](Cc2c[nH]c3ccc(O)cc23)C(=O)N[C@H](Cc2c[nH]c3ccccc23)C(=O)N[C@@H](C2CC2)C(=O)N(C)[C@H](C(=O)N(C)[C@@H](Cc2ccc(F)cc2)C(=O)N[C@@H](CCCCNC(=O)CN2CCN(CC(=O)O)CCN(CC(=O)O)CCN(CC(=O)O)CC2)C(N)=O)CNC(=O)CCC[C@H](NC(C)=O)C(=O)N[C@@H](Cc2ccc(O)cc2)C(=O)N[C@@H](CO)C(=O)N(C)[C@@H](CCc2ccccc2)C(=O)N1C [Example C31] please
(A) 3.68

(Q) Please answer likewise for CC(=O)NCCCC[C@H]1C(=O)N[C@@H](Cc2c[nH]c3ccc(O)cc23)C(=O)N[C@@H](Cc2c[nH]c3ccccc23)C(=O)N[C@@H]([C@H](C)O)C(=O)N(C)[C@H](C(=O)N(C)[C@@H](Cc2ccc(F)cc2)C(=O)N[C@@H](CCCCNC(=O)N2CCN(CC(=O)O)CC2)C(=O)N[C@H](CCCCNC(=O)CN2CCN(CC(=O)O)CCN(CC(=O)O)CCN(CC(=O)O)CC2)C(N)=O)CNC(=O)CC[C@H](NC(C)=O)C(=O)N[C@@H](Cc2ccc(O)cc2)C(=O)N[C@@H](CO)C(=O)N(C)[C@@H](CCc2ccccc2)C(=O)N1C [Example C23]
(A) 1.79
